experiment: Solubility of crystal form A in different solvents; assay type: physicochemical; settings: aqueous with cosolvent or surfactant or cyclodextrin, thermodynamic from solid; Acetonitrile-water (1:1), room temperature

{"compound": "Cn1c(=O)n(C[C@H]2CC[C@@](C)(O)CC2)c(=O)c2c1ncn2CC1CC1 [Crystal Form A]", "solubility": "~22.2 mg/mL"}

---

experiment: Solubility of crystal form A in different solvents; type: physicochemical; details: organic solvent or mixture, thermodynamic from solid; Methyl tertiary butyl ether, room temperature

{"molecule": "Cn1c(=O)n(C[C@H]2CC[C@@](C)(O)CC2)c(=O)c2c1ncn2CC1CC1 [Crystal Form A]", "solubility": "~2.6 mg/mL"}

---

experiment: Solubility of crystal form A in different solvents; format: physicochemical; details: aqueous with cosolvent or surfactant or cyclodextrin, thermodynamic from solid; Ethanol-water (3:1), room temperature

{"compound": "Cn1c(=O)n(C[C@H]2CC[C@@](C)(O)CC2)c(=O)c2c1ncn2CC1CC1 [Crystal Form A]", "solubility": "~24.5 mg/mL"}

---

assay: Solubility of crystal form A in different solvents; assay type: physicochemical; conditions: aqueous with cosolvent or surfactant or cyclodextrin, thermodynamic from solid; Methanol-water (1:1), room temperature
reported endpoint: solubility

{"compound": "Cn1c(=O)n(C[C@H]2CC[C@@](C)(O)CC2)c(=O)c2c1ncn2CC1CC1 [Crystal Form A]", "result": "~7.8 mg/mL"}

---

experiment: Solubility of crystal form A in different solvents; type: physicochemical; settings: organic solvent or mixture, thermodynamic from solid; Methyl isobutyl ketone, room temperature

{"compound": "Cn1c(=O)n(C[C@H]2CC[C@@](C)(O)CC2)c(=O)c2c1ncn2CC1CC1 [Crystal Form A]", "solubility": "~10.9 mg/mL"}

---

experiment: Solubility of crystal form A in different solvents; type: physicochemical; settings: organic solvent or mixture, thermodynamic from solid; Isopropanol, room temperature

{"compound": "Cn1c(=O)n(C[C@H]2CC[C@@](C)(O)CC2)c(=O)c2c1ncn2CC1CC1 [Crystal Form A]", "solubility": "~10.1 mg/mL"}

---

assay: Evaluation on pharmacokinetics of compound in SD rats; assay type: in vivo; conditions: male, Sprague-Dawley, rat, plasma, single intravenous injection and oral administration, read-out: Half life T1/2 (converted)

{"compound": "Cn1c(=O)n(C[C@H]2CC[C@@](C)(O)CC2)c(=O)c2c1ncn2CC1CC1", "readout units": "min", "half-life": 47.6}
{"compound": "CC(=O)CCCCn1c(=O)c2c(ncn2C)n(C)c1=O [Pentoxifylline, reference compound]", "readout units": "min", "half-life": 11.5}

---

experiment: Solubility of crystal form A in different solvents; format: physicochemical; settings: organic solvent or mixture, thermodynamic from solid; Acetonitrile, room temperature
reported endpoint: solubility

{"compound": "Cn1c(=O)n(C[C@H]2CC[C@@](C)(O)CC2)c(=O)c2c1ncn2CC1CC1 [Crystal Form A]", "result": "~13 mg/mL"}

---

assay: Solubility of crystal form A in different solvents; type: physicochemical; details: aqueous with cosolvent or surfactant or cyclodextrin, thermodynamic from solid; Methanol-water (3:1), room temperature

{"molecule": "Cn1c(=O)n(C[C@H]2CC[C@@](C)(O)CC2)c(=O)c2c1ncn2CC1CC1 [Crystal Form A]", "solubility": "~19 mg/mL"}

---

assay: Solubility of crystal form A in different solvents; type: physicochemical; settings: organic solvent or mixture, thermodynamic from solid; n-butanol, room temperature
reported endpoint: solubility

{"compound": "Cn1c(=O)n(C[C@H]2CC[C@@](C)(O)CC2)c(=O)c2c1ncn2CC1CC1 [Crystal Form A]", "reported endpoint": "solubility", "result": "~20.5 mg/mL"}
